Origin of the recorded values: patent US5672715A

- System: Rape
- method_notes: pre-emergence herbicide test
- Type: in vivo
- test_context: pre-emergence, 0.25 lb/A; read-out: % plant inhibition
Use 20% as the dividing line for inhibition at 280.212 g/ha, with the line itself on the 1 side and lower values as 0.

Query block: Form field: inhibition at 280.212 g/ha at least 20%? Entry: CCC(C)OC(=O)c1cc(-c2nn(C)c(C(F)(F)F)c2C)c(F)cc1Cl (stereo not drawn)
Result block: 1

Query block: Form field: inhibition at 280.212 g/ha at least 20%? Entry: Cc1c(-c2cc(C(=O)OCC(C)C)c(Cl)cc2F)nn(C)c1C(F)(F)F
Result block: 0

Query block: Form field: inhibition at 280.212 g/ha at least 20%? Entry: Cc1c(-c2cc(CSC(C)C)c(Cl)cc2F)nn(C)c1C(F)(F)F
Result block: 0

Query block: Form field: inhibition at 280.212 g/ha at least 20%? Entry: COC(=O)CSCc1cc(-c2nn(C)c(C(F)(F)F)c2C)c(F)cc1Cl
Result block: 0

Query block: Form field: inhibition at 280.212 g/ha at least 20%? Entry: Cc1c(-c2cc(C(=O)OCSC#N)c(Cl)cc2F)nn(C)c1C(F)(F)F
Result block: 0

***
Query block: Form field: inhibition at 280.212 g/ha at least 20%? Entry: Cc1c(-c2ccc(Cl)cc2)nn(C)c1C(F)(F)F
Result block: 0

Query block: Form field: inhibition at 280.212 g/ha at least 20%? Entry: CC(C)OC(=O)c1cc(-c2nn(C)c(C(F)(F)F)c2CF)c(F)cc1Cl
Result block: 1

Query block: Form field: inhibition at 280.212 g/ha at least 20%? Entry: CC(C)OC(=O)c1cc(-c2nn(C)c(C(F)(F)F)c2C=O)c(F)cc1Cl
Result block: 0

Query block: Form field: inhibition at 280.212 g/ha at least 20%? Entry: COCc1cc(-c2nn(C)c(C(F)(F)F)c2C)c(F)cc1Cl
Result block: 0

Query block: Form field: inhibition at 280.212 g/ha at least 20%? Entry: COC(=O)c1cc(-c2nn(C)c(C(F)(F)F)c2C)c(F)cc1Cl
Result block: 1

Query block: Form field: inhibition at 280.212 g/ha at least 20%? Entry: Cc1c(-c2cc(CS)c(Cl)cc2F)nn(C)c1C(F)(F)F
Result block: 0

Query block: Form field: inhibition at 280.212 g/ha at least 20%? Entry: Cc1c(-c2cc(C(=O)NC(C)C)c(Cl)cc2F)nn(C)c1C(F)(F)F
Result block: 1

====

Measured inhibition at 40.0143 g/ha by item
- Tested on: Cocklebur
- method_notes: post-emergence herbicide test
- Assay type: in vivo
- test_context: Xanthium strumarium, post-emergence, 0.0357 lb/A; read-out: % plant inhibition
Write the number in % without appending the unit.

Query block: I'm curious: which inhibition at 40.0143 g/ha was measured for Cc1c(-c2cc(F)c([N+](=O)[O-])cc2F)nn(C)c1C(F)(F)F tested on Cocklebur?
Result block: 0

Query block: I'm curious: which inhibition at 40.0143 g/ha was measured for COc1cc(-c2nn(C)c(C(F)(F)F)c2C)c(F)cc1[N+](=O)[O-] tested on Cocklebur?
Result block: 0

***
Query block: I'm curious: which inhibition at 40.0143 g/ha was measured for Cc1c(-c2cc(O)c(Cl)cc2F)nn(C)c1C(F)(F)F tested on Cocklebur?
Result block: 80

Query block: I'm curious: which inhibition at 40.0143 g/ha was measured for C#CCOc1cc(-c2nn(C)c(C(F)(F)F)c2C)c(F)cc1Cl tested on Cocklebur?
Result block: 98

Query block: I'm curious: which inhibition at 40.0143 g/ha was measured for COc1cc(-c2nn(C)c(C(F)(F)F)c2C)c(F)cc1Cl tested on Cocklebur?
Result block: 40

Query block: I'm curious: which inhibition at 40.0143 g/ha was measured for Cc1c(-c2cc(OCC(=O)OC(C)C)c(Cl)cc2F)nn(C)c1C(F)(F)F tested on Cocklebur?
Result block: 80
